Population Mitochondria Different-Phenotype (%) reference
# System: U2OS
# experimentalDetails: Multiplex assay against U2OS
# Type: toxicity, cell-based
# conditionSet: human, 24 h, 1 µM, compound concentration 1 uM, replicate 2
valueType: Population Mitochondria Different-Phenotype (%)

COc1cccc2cc(-c3nc([C@H]4CC[C@H](C(=O)O)CC4)n4ncnc(N)c34)[nH]c12    7
O=C(Nc1cccnn1)N1CCC(=Cc2cccc(Oc3ccc(C(F)(F)F)cn3)c2)CC1    22
COc1cc2ncnc(Nc3ccc(F)c(Cl)c3)c2cc1NC(=O)/C=C/CN1CCCCC1 [DACOMITINIB ANHYDROUS]    50
